# Stimulation (%) of cyclic AMP, isolated porcine thyroid cells; 20 µg/ml per entry
target-or-system: TSH receptor of isolated porcine thyroid cells (porcine, UniProt Q8SPP9 22-764)
Sequence (Q8SPP9 22-764): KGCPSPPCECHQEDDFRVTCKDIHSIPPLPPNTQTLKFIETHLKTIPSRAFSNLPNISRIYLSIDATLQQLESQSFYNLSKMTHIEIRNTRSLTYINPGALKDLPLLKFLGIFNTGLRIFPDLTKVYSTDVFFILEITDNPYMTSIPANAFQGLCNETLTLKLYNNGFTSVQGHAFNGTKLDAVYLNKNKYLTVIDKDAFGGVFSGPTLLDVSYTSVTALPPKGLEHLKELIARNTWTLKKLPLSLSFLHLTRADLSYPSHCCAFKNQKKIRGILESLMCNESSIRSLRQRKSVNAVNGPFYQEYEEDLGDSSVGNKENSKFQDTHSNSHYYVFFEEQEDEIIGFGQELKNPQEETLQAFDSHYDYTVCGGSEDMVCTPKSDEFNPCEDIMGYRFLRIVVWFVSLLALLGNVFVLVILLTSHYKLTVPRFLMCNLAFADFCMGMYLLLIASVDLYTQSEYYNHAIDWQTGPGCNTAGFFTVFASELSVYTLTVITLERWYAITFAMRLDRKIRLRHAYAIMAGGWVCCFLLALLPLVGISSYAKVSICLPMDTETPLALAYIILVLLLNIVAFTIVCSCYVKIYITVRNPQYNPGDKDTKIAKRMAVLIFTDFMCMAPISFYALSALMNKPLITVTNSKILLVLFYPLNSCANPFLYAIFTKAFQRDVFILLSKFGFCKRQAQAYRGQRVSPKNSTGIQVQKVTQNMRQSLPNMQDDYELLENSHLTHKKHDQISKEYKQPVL
procedure-details: cell-based or functional assay
# output: bare number, implied unit %

Find the recorded Stimulation (%) of cyclic AMP, isolated porcine thyroid cells; 20 µg/ml belonging to 14D3 IgG (antibody, V domains shown, not shown: a dimerising Fc or GST, mouse monoclonal IgG; also called MAb 14D3) VH: DVQMQQPGPELVKPGASLKMSCKASGYSFTGYNMHWVKQSHGKSLEWIGYIDPYSGATSYNQKFEGKATLTVDKSSSTAYMQLNSLTSEDSAVYYCARRWDWDPYAMDYWGQGTSVTVSS VL: NILMTQSPAILSVSPGERVSFACRASQSIGTSIHWYQQRTNGSPRLLIKYASESISGIPSRFSGSGSGTDFTLSINSVESEDIADYYCQQTNRWPLTFGAGTKLELKR and report it. 351

So what does the record say about Stimulation (%) of cyclic AMP, isolated porcine thyroid cells; 20 µg/ml for 2B4 IgG (antibody, V domains shown, not shown: a dimerising Fc or GST, mouse monoclonal IgG; also called 2B4 MAb) VH: DVQLQQSGTVLARPGASVRMSCKASGYSFTRYWIHWLKQRPGQGLEWIGAIFPGNRDTSYNQRFKGKAEVTAVTSASTAYLDLSSLTNEDSAVYYCTRWPYYGSIYVNFDYWGQGTTLTVSS VL: DIVMTQSPLSLPVSLGDQASISCRTSQNLVHRNGNTYLHWYLQKPGQSPKLLIYKISNRFSGVPDRFSGSGSGTDFTLKISRVEAEDLGVYFCSQGTHVPPTFGGGTKLEIKR ? 100

If you can, please state the reported Stimulation (%) of cyclic AMP, isolated porcine thyroid cells; 20 µg/ml value of 17D2 IgG (antibody, V domains shown, not shown: a dimerising Fc or GST, mouse monoclonal IgG) VH: DVQIQQSGPELVKPGASVKMSCKASGYSFTAYNMHWVKQTHGKSLEWIGYIDPYSGATSYHQKFKGKATLTVDKSSSTAYMRLNSLTSEDSAVYYCARRWDWDPYAMDYWGQGTSVTVSS VL: SVEMSQSPAILSVSPGERISFSCRASQSIGTSIHWYQQRTNGSPRLLIKYASASISGIPSRFSGSGSGTDFTLSINSVESEDIADYYCQQSNSWPLTFGAGTKLELKR . 207

Origin of values: patent US20050118638A1
